Species: Rattus norvegicus
procedure.text: Open TG-GATES - Regimen: Single
Type: toxicity, organism-based, Sprague-Dawley
Parameters: regimen Single, gender Male, age 6 weeks
cond: in vivo, po, 1000 mg/kg, 3 h, tissue Blood, route gavage, dose level High
# maps each entry to its Hb
endpoint: Hb

* CN/C(=N/CCSCc1nc[nH]c1C)NC#N [CIMETIDINE] | 12.3 g/dL
* CNC(=C[N+](=O)[O-])NCCSCc1ccc(CN(C)C)o1 [RANITIDINE] | 12.7 g/dL
* COC(=O)C1=C(C)NC(C)=C(C(=O)OC)C1c1ccccc1[N+](=O)[O-] [NIFEDIPINE] | 13 g/dL
* O=C(OC[C@H]1O[C@@H](OC(=O)c2cc(O)c(O)c(OC(=O)c3cc(O)c(O)c(O)c3)c2)[C@H](OC(=O)c2cc(O)c(O)c(OC(=O)c3cc(O)c(O)c(O)c3)c2)[C@@H](OC(=O)c2cc(O)c(O)c(OC(=O)c3cc(O)c(O)c(O)c3)c2)[C@@H]1OC(=O)c1cc(O)c(O)c(OC(=O)c2cc(O)c(O)c(O)c2)c1)c1cc(O)c(O)c(OC(=O)c2cc(O)c(O)c(O)c2)c1 [TANNIC ACID] | 13 g/dL
* Cc1nnc2n1-c1ccc(Cl)cc1C(c1ccccc1Cl)=NC2 [TRIAZOLAM] | 13.8 g/dL

---

Organism: Rattus norvegicus
procedure.text: Open TG-GATES - Regimen: Daily Repeat
Assay type: toxicity, organism-based, Sprague-Dawley
Parameters: regimen Daily Repeat, gender Male, age 6 weeks
cond: in vivo, po, 0 mg/kg, […], tissue Kidney, route gavage, dose level Control, time 7 day
endpoint: KIDNEY_TOTAL (g)

- NC1=NC(=O)C(c2ccccc2)O1 (stereo not drawn) [PEMOLINE]: 2.2
- COC(=O)C1=C(C)NC(C)=C(C(=O)OC)C1c1ccccc1[N+](=O)[O-] [NIFEDIPINE]: 2.1
- Brc1ccccc1 [BROMOBENZENE]: 2
- CCCc1cc(=O)[nH]c(=S)[nH]1 [PROPYLTHIOURACIL]: 2.1
- CCOc1ccc(NC(C)=O)cc1 [PHENACETIN]: 2.3
- Cc1nnc2n1-c1ccc(Cl)cc1C(c1ccccc1Cl)=NC2 [TRIAZOLAM]: 2.2
- O=C(OC[C@H]1O[C@@H](OC(=O)c2cc(O)c(O)c(OC(=O)c3cc(O)c(O)c(O)c3)c2)[C@H](OC(=O)c2cc(O)c(O)c(OC(=O)c3cc(O)c(O)c(O)c3)c2)[C@@H](OC(=O)c2cc(O)c(O)c(OC(=O)c3cc(O)c(O)c(O)c3)c2)[C@@H]1OC(=O)c1cc(O)c(O)c(OC(=O)c2cc(O)c(O)c(O)c2)c1)c1cc(O)c(O)c(OC(=O)c2cc(O)c(O)c(O)c2)c1 [TANNIC ACID]: 2.2
- CC(C)NNC(=O)c1ccncc1 [IPRONIAZID]: 2
- CN/C(=N/CCSCc1nc[nH]c1C)NC#N [CIMETIDINE]: 2.1
- CN1C(=O)CCS(=O)(=O)C1c1ccc(Cl)cc1 (stereo not drawn) [CHLORMEZANONE]: 2.1
- CNC(=C[N+](=O)[O-])NCCSCc1ccc(CN(C)C)o1 [RANITIDINE]: 2.2
- Nc1c2c(nc3ccccc13)CCCC2 [TACRINE]: 2.1
- CN(C)CCC(c1ccc(Cl)cc1)c1ccccn1 (stereo not drawn) [CHLORPHENIRAMINE]: 2.1

---

Organism: Rattus norvegicus
procedure.text: Open TG-GATES - Regimen: Single
Type: toxicity, organism-based, Sprague-Dawley
Set-up: regimen Single, gender Male, age 6 weeks
cond: in vivo, po, 100 mg/kg, 24 h, tissue Blood, route gavage, dose level Low
endpoint: Lym (%)

• O=C(OC[C@H]1O[C@@H](OC(=O)c2cc(O)c(O)c(OC(=O)c3cc(O)c(O)c(O)c3)c2)[C@H](OC(=O)c2cc(O)c(O)c(OC(=O)c3cc(O)c(O)c(O)c3)c2)[C@@H](OC(=O)c2cc(O)c(O)c(OC(=O)c3cc(O)c(O)c(O)c3)c2)[C@@H]1OC(=O)c1cc(O)c(O)c(OC(=O)c2cc(O)c(O)c(O)c2)c1)c1cc(O)c(O)c(OC(=O)c2cc(O)c(O)c(O)c2)c1 [TANNIC ACID] = 78.8
• COC(=O)C1=C(C)NC(C)=C(C(=O)OC)C1c1ccccc1[N+](=O)[O-] [NIFEDIPINE] = 65.6
• CNC(=C[N+](=O)[O-])NCCSCc1ccc(CN(C)C)o1 [RANITIDINE] = 79.2
• Cc1nnc2n1-c1ccc(Cl)cc1C(c1ccccc1Cl)=NC2 [TRIAZOLAM] = 69
• CN/C(=N/CCSCc1nc[nH]c1C)NC#N [CIMETIDINE] = 79.8

---

Species on record: Rattus norvegicus
procedure.text: Open TG-GATES - Regimen: Single
Type: toxicity, organism-based, Sprague-Dawley
Parameters: regimen Single, gender Male, age 6 weeks
cond: in vivo, po, 0 mg/kg, 6 h, tissue Blood, route gavage, dose level Control
# maps each entry to its MCV
endpoint: MCV

* CS(=O)(=O)O.Cc1ccc(NC(=O)c2ccc(CN3CCN(C)CC3)cc2)cc1Nc1nccc(-c2cccnc2)n1 [IMATINIB MESYLATE] | 63.3 fL
* CCCc1cc(=O)[nH]c(=S)[nH]1 | 64.8 fL
* CN/C(=N/CCSCc1nc[nH]c1C)NC#N | 62.2 fL
* CC(C)NNC(=O)c1ccncc1 | 62.5 fL
* COC(=O)C1=C(C)NC(C)=C(C(=O)OC)C1c1ccccc1[N+](=O)[O-] | 65.8 fL

---

Species: Rattus norvegicus
procedure.text: Open TG-GATES - Regimen: Single
Assay type: toxicity, organism-based, Sprague-Dawley
Set-up: regimen Single, gender Male, age 6 weeks
cond: in vivo, po, 1000 mg/kg, 3 h, tissue Plasma, route gavage, dose level High
endpoint: A/G

• CN/C(=N/CCSCc1nc[nH]c1C)NC#N = 1.7
• Cc1nnc2n1-c1ccc(Cl)cc1C(c1ccccc1Cl)=NC2 = 0.9
• CNC(=C[N+](=O)[O-])NCCSCc1ccc(CN(C)C)o1 = 1.7
• O=C(OC[C@H]1O[C@@H](OC(=O)c2cc(O)c(O)c(OC(=O)c3cc(O)c(O)c(O)c3)c2)[C@H](OC(=O)c2cc(O)c(O)c(OC(=O)c3cc(O)c(O)c(O)c3)c2)[C@@H](OC(=O)c2cc(O)c(O)c(OC(=O)c3cc(O)c(O)c(O)c3)c2)[C@@H]1OC(=O)c1cc(O)c(O)c(OC(=O)c2cc(O)c(O)c(O)c2)c1)c1cc(O)c(O)c(OC(=O)c2cc(O)c(O)c(O)c2)c1 = 2

---

# maps each entry to its TC
Species on record: Rattus norvegicus
procedure.text: Open TG-GATES - Regimen: Daily Repeat
Format: toxicity, organism-based, Sprague-Dawley
Set-up: regimen Daily Repeat, gender Male, age 6 weeks
cond: in vivo, po, 300 mg/kg, […], tissue Plasma, route gavage, dose level Middle, time 7 day
endpoint: TC

* Cc1nnc2n1-c1ccc(Cl)cc1C(c1ccccc1Cl)=NC2 [TRIAZOLAM] | 79 mg/dL
* O=C(OC[C@H]1O[C@@H](OC(=O)c2cc(O)c(O)c(OC(=O)c3cc(O)c(O)c(O)c3)c2)[C@H](OC(=O)c2cc(O)c(O)c(OC(=O)c3cc(O)c(O)c(O)c3)c2)[C@@H](OC(=O)c2cc(O)c(O)c(OC(=O)c3cc(O)c(O)c(O)c3)c2)[C@@H]1OC(=O)c1cc(O)c(O)c(OC(=O)c2cc(O)c(O)c(O)c2)c1)c1cc(O)c(O)c(OC(=O)c2cc(O)c(O)c(O)c2)c1 [TANNIC ACID] | 81.2 mg/dL
* CCOc1ccc(NC(C)=O)cc1 [PHENACETIN] | 81.6 mg/dL
* CN/C(=N/CCSCc1nc[nH]c1C)NC#N [CIMETIDINE] | 73.4 mg/dL
* COC(=O)C1=C(C)NC(C)=C(C(=O)OC)C1c1ccccc1[N+](=O)[O-] [NIFEDIPINE] | 83.4 mg/dL
* CNC(=C[N+](=O)[O-])NCCSCc1ccc(CN(C)C)o1 [RANITIDINE] | 72.8 mg/dL

---

# maps each entry to its A/G
Organism: Rattus norvegicus
procedure.text: Open TG-GATES - Regimen: Single
Format: toxicity, organism-based, Sprague-Dawley
Design: regimen Single, gender Male, age 6 weeks
cond: in vivo, po, 0 mg/kg, 3 h, tissue Plasma, route gavage, dose level Control
endpoint: A/G

• CN/C(=N/CCSCc1nc[nH]c1C)NC#N = 1.7
• O=C(OC[C@H]1O[C@@H](OC(=O)c2cc(O)c(O)c(OC(=O)c3cc(O)c(O)c(O)c3)c2)[C@H](OC(=O)c2cc(O)c(O)c(OC(=O)c3cc(O)c(O)c(O)c3)c2)[C@@H](OC(=O)c2cc(O)c(O)c(OC(=O)c3cc(O)c(O)c(O)c3)c2)[C@@H]1OC(=O)c1cc(O)c(O)c(OC(=O)c2cc(O)c(O)c(O)c2)c1)c1cc(O)c(O)c(OC(=O)c2cc(O)c(O)c(O)c2)c1 = 2.1
• CCCc1cc(=O)[nH]c(=S)[nH]1 = 2

The values you see were collected from ChEMBL document CHEMBL3885861.
